ASSAY EXPLANATION: Growth inhibition of human HCT15 cells incubated for 48 hrs by sulforhodamine B assay
Assay type: functional
RUN CONDITIONS: HCT-15, 48 h, read-out: pGI50 (converted)
GI50 values by entry

QUERY SMILES | GI50
c1ccc(-c2nc(Nc3ccc(-c4nc5ccccc5[nH]4)cc3)nc(N3CCOCC3)n2)cc1 | 0.347 µM
c1ccc2[nH]c(-c3ccc(Nc4nc(N5CCCCC5)nc(N5CCOCC5)n4)cc3)nc2c1 | 1.86 µM
Clc1ccc(-c2nc(Nc3ccc(-c4nc5ccccc5[nH]4)cc3)nc(N3CCOCC3)n2)cc1 | 0.191 µM
Fc1ccc(-c2nc(Nc3ccc(-c4nc5ccccc5[nH]4)cc3)nc(N3CCOCC3)n2)cc1 | 1.66 µM

====

ASSAY EXPLANATION: Growth inhibition of human LOXIMVI cells assessed as cell growth at 10^-8 M incubated for 48 hrs by sulforhodamine B assay
Type: functional
RUN CONDITIONS: LOX IMVI, read-out: Activity
EXPERIMENTAL ENDPOINT: growth at 0.01 µM (%)

QUERY SMILES | EXPERIMENTAL ENDPOINT | UNITS OF MEASURE | REPORTED RESULT
c1ccc2[nH]c(-c3ccc(Nc4nc(N5CCCCC5)nc(N5CCOCC5)n4)cc3)nc2c1 | growth at 0.01 µM | % | 96
Fc1ccc(-c2nc(Nc3ccc(-c4nc5ccccc5[nH]4)cc3)nc(N3CCOCC3)n2)cc1 | growth at 0.01 µM | % | 98
Clc1ccc(-c2nc(Nc3ccc(-c4nc5ccccc5[nH]4)cc3)nc(N3CCOCC3)n2)cc1 | growth at 0.01 µM | % | 97
c1ccc(-c2nc(Nc3ccc(-c4nc5ccccc5[nH]4)cc3)nc(N3CCOCC3)n2)cc1 | growth at 0.01 µM | % | 94

====

Tested on: SK-MEL-2
ASSAY EXPLANATION: Growth inhibition of human SK-MEL-2 cells assessed as cell growth at 10^-5 M incubated for 48 hrs by sulforhodamine B assay
Assay type: functional
RUN CONDITIONS: SK-MEL-2, 48 h, read-out: Activity
List of growth at 10 µM values.

QUERY SMILES | growth at 10 µM
Clc1ccc(-c2nc(Nc3ccc(-c4nc5ccccc5[nH]4)cc3)nc(N3CCOCC3)n2)cc1 | -87%
c1ccc(-c2nc(Nc3ccc(-c4nc5ccccc5[nH]4)cc3)nc(N3CCOCC3)n2)cc1 | -85%
Fc1ccc(-c2nc(Nc3ccc(-c4nc5ccccc5[nH]4)cc3)nc(N3CCOCC3)n2)cc1 | -35%
c1ccc2[nH]c(-c3ccc(Nc4nc(N5CCCCC5)nc(N5CCOCC5)n4)cc3)nc2c1 | -38%

====

System: MDA-MB-435
ASSAY EXPLANATION: Growth inhibition of human MDA-MB-435 cells incubated for 48 hrs by sulforhodamine B assay
Format: functional
RUN CONDITIONS: MDA-MB-435, 48 h, read-out: TGI

QUERY SMILES | TGI (µM)
c1ccc(-c2nc(Nc3ccc(-c4nc5ccccc5[nH]4)cc3)nc(N3CCOCC3)n2)cc1 | 3.28
Fc1ccc(-c2nc(Nc3ccc(-c4nc5ccccc5[nH]4)cc3)nc(N3CCOCC3)n2)cc1 | 4.04
Clc1ccc(-c2nc(Nc3ccc(-c4nc5ccccc5[nH]4)cc3)nc(N3CCOCC3)n2)cc1 | 1.86
c1ccc2[nH]c(-c3ccc(Nc4nc(N5CCCCC5)nc(N5CCOCC5)n4)cc3)nc2c1 | 4.59
